Assay: reducers of endogenous Her2 protein level, primary screen, SKBR3 breast tumor cells, AlphaScreen, ATP viability (AID 461);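 further: percent of carrier control wells set as 100% viability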
Settings: 18-24 h, measured here: SKBR3 viability, ATP luminescence, at 10 µM
assay metric: viability (%)
Respond with the bare value in %.

Prompt line: Entry `O=C(NCCO)c1cccc2c1C(=O)c1ccccc1-2` : reported viability = ?
Response line: 97.5

Prompt line: Entry `c1ccc(N=P(c2nc3ccccc3o2)(N2CCOCC2)N2CCOCC2)cc1` : reported viability = ?
Response line: 119

Prompt line: Entry `CCN1C(=O)/C(=C2\C=Cc3ccccc3N2CC)OC1=S` : reported viability = ?
Response line: 95.5

Prompt line: Entry COC(=O)c1ccc(NC(=O)C2CC(=O)N(c3cc(C)ccc3C)C2)cc1 (stereo unspecified) : reported viability = ?
Response line: 97

Prompt line: Entry `CCCN(CCC)C(=O)CSc1nc2ccccc2c(=O)n1C1CCCC1` : reported viability = ?
Response line: 136

Prompt line: Entry `COC(=O)c1cc(NS(=O)(=O)c2ccc3c(c2)CCC(=O)N3)cc(C(=O)OC)c1` : reported viability = ?
Response line: 112

Prompt line: Entry `COc1ccccc1Oc1coc2c(CN3CCN(C)CC3)c(O)ccc2c1=O` : reported viability = ?
Response line: 102

Prompt line: Entry `Cc1ccc(N2CCN(C(=S)c3ccc(N(C)C)cc3)CC2)cc1` : reported viability = ?
Response line: 89.5

Prompt line: Entry `CCN(CC)S(=O)(=O)c1ccc(Cl)c(C(=O)OC)c1` : reported viability = ?
Response line: 97

Prompt line: Entry `CCCCc1c(O)nc(SCC(=O)c2ccccc2)[nH]c1=O` : reported viability = ?
Response line: 105

Prompt line: Entry `CCOc1ccc(OCc2cccc(C(=O)O)c2)cc1` : reported viability = ?
Response line: 108
